Assay: in vitro
Conditions: human, hepatocytes
VALUE TYPE: log10(hepatocyte CLint) (log10 of the value in µL/min/1e6 cells)
Please interpret these as log10 of hepatocyte CLint where hepatocyte CLint is in µL/min/1e6 cells.

Look up log10(hepatocyte CLint): "Nc1ccc2c(c1)Cc1cc(N)ccc1-2"
1.79

One more compound: "Nc1nc(-c2ccc(Cl)c(Cl)c2)c(-c2ccncc2)s1"
1.28

Next: "CC(C)C[C@H](CO)Nc1nc(SCc2ccccc2)nc2nc(N)sc12"
1.31

Follow-up item: "Cc1ccc(-c2cc(C(F)(F)F)nn2-c2ccc(C(=O)O)cc2)cc1"
1.03

Follow-up entry: CCCCC1=NC2(CCCC2)C(=O)N1Cc1ccc(-c2ccccc2-c2nnn[nH]2)cc1 [IRBESARTAN]
1.02

Consider next the compound O=C1Nc2ccc(Cl)cc2C(c2ccccc2Cl)=NC1O (centres undefined) [LORAZEPAM] in the same way.
0.66
